tested on: KRAS PDC multicell spheroid viability; test: Anticancer human tumor 521955-158-R6-J3-PDC patient-derived pancreatic carcinoma cell line growth inhibition [KRAS2]; conditions: second compound 10 µM; first compound 1 µM; stronger effect = lower value;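 also: drug exposure lasted seven days; 100% = DMSO vehicle wells and lower means fewer viable cells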
propertyMeasured: viability, T/C (%)
Numbers only; they are read as %.

>  <compound>
COc1cc(Nc2ncc3c(n2)-c2ccc(Cl)cc2C(c2c(F)cccc2OC)=NC3)ccc1C(=O)O + C=CC(=O)N1CCN(c2nc(=O)n(-c3c(C)ccnc3C(C)C)c3nc(-c4c(O)cccc4F)c(F)cc23)C(C)C1

>  <targetOrSystem>
KRAS PDC multicell spheroid viability;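 also: drug exposure lasted seven days; 100% = DMSO vehicle wells and lower means fewer viable cells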

>  <viability, T/C, %>
62.4

$$$$
>  <compound>
COC(=O)c1ccc2c(C(=Nc3ccc(N(C)C(=O)CN4CCN(C)CC4)cc3)c3ccccc3)c(O)[nH]c2c1 + C=CC(=O)N1CCN(c2nc(=O)n(-c3c(C)ccnc3C(C)C)c3nc(-c4c(O)cccc4F)c(F)cc23)C(C)C1

>  <targetOrSystem>
KRAS PDC multicell spheroid viability;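 also: drug exposure lasted seven days; 100% = DMSO vehicle wells and lower means fewer viable cells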

>  <viability, T/C, %>
89

$$$$
>  <compound>
CC(=O)OC12COC1CC(O)C1(C)C(=O)C(O)C3=C(C)C(OC(=O)C(O)C(NC(=O)OC(C)(C)C)c4ccccc4)CC(O)(C(OC(=O)c4ccccc4)C21)C3(C)C (stereo not given) + COc1cc2nc(C)nc(NC(C)c3cc(N)cc(C(F)(F)F)c3)c2cc1OC1CCOC1

>  <targetOrSystem>
KRAS PDC multicell spheroid viability;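 also: drug exposure lasted seven days; 100% = DMSO vehicle wells and lower means fewer viable cells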

>  <viability, T/C, %>
102

$$$$

According to the records, this compound CC(C)NCC(C(=O)N1CCN(c2ncnc3c2C(C)CC3O)CC1)c1ccc(Cl)cc1 (stereo not given) + CC1OCC2(CCN(c3cnc(Sc4ccnc(N)c4Cl)c(N)n3)CC2)C1N displays viability, T/C of 43.9

According to the records, this compound CC1COCCN1c1cc(-c2ccnn2C)c2ccnc(-c3ccn[nH]3)c2n1 (stereo not given) + COc1cc2nc(C)nc(NC(C)c3cc(N)cc(C(F)(F)F)c3)c2cc1OC1CCOC1 displays viability, T/C of 47.6

According to the records, this compound Cn1nccc1Nc1nccc(-c2cc3c(s2)C(C)(C)N(CCN2CCOCC2)C3=O)n1 + COc1cc2nc(C)nc(NC(C)c3cc(N)cc(C(F)(F)F)c3)c2cc1OC1CCOC1 displays viability, T/C of 14.1
